- measurement.target: G-protein coupled receptor 151 (Homo sapiens) (UniProt Q8TDV0)
- Sequence (Q8TDV0 whole entry, looked up): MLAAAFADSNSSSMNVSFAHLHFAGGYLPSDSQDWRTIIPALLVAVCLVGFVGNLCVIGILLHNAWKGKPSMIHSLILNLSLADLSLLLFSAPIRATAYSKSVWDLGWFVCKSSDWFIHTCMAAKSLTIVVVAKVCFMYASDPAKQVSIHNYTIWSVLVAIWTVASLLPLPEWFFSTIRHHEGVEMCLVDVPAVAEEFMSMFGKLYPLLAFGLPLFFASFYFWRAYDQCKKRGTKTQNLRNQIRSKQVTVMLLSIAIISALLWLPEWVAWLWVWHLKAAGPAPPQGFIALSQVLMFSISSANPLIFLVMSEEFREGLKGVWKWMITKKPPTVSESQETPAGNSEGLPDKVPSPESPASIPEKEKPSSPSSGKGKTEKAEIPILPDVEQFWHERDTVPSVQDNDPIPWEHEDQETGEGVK
- procedure.text: activators of human GPR151, primary screen, cell-based, PathHunter beta-arrestin, luminescence (AID 1508602);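 further: 0% = median of compound wells and 100% = cells with positive control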
- test.context: PathHunter beta-arrestin GPR151 cells, at 11.2 µM, stronger effect = higher value
The campaign covered roughly 650,000 compounds. About 6,800 (1%) were called active. Shown is part of a subset that was picked to be rich in actives.
Entries annotated with measured activation
Give the value in % but do not write % after it.

Here are 3 molecules together with their reported answers.
| molecule | activation [%] |
| --- | --- |
| C=CCN1C(=O)CC(C(=O)OC)C12CCN(C1CCN(C(=O)OCC)CC1)CC2 (stereo not drawn) | 12.8 |
| OCCNc1ncnc2nc(-c3ccccc3)[nH]c12 | 0.187 |
| CSc1nnc2n(/N=C/c3ccc(F)cc3)cnn12 | -3.69 |

[in] Consider the molecule shown here: CCN1C(=O)CC(C(=O)OC)C12CCN(Cc1ccc(OC)c(OC)c1)CC2 (stereo not drawn) What is its recorded activation?
[out] 2.97

[in] Consider the molecule shown here: CCN1CCCC1CNc1nc(=S)[nH]c2ccccc12 (stereo not drawn) What is its recorded activation?
[out] 9.1

---

Entries annotated with measured activation
- measurement.target: G-protein coupled receptor 151 (Homo sapiens)
- procedure.text: activators of human GPR151, primary screen, cell-based, PathHunter beta-arrestin, luminescence (AID 1508602);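 further: 0% = median of compound wells and 100% = cells with positive control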
- test.context: PathHunter beta-arrestin GPR151 cells, at 11.2 µM, stronger effect = higher value
Screen size: about 650,000 compounds; about 6,800 (1%) were called active. For the sample, actives were picked, then their nearest neighbours and some compounds at random.
Give the value in % but do not write % after it.

Here are 4 molecules together with their reported answers.
| molecule | measured.metric | assay.value |
| --- | --- | --- |
| CCOc1ccc(CN2CCN(Cc3ccc4cc(F)ccc4n3)CC2CCO)cc1 (stereo not given) | activation | -0.448 |
| COc1cc(-c2cc(-c3ccccc3)nc3sc(C(=O)O)c(N)c23)cc(OC)c1OC | activation | 0.0436 |
| CCC(C(=O)N1CCN(C)CC1)n1c(C)c2cnn(-c3ccccc3)c(=O)c2c1C (stereo not given) | activation | -1.42 |
| COc1cccc(OC)c1C(=O)Nc1cc(C(=O)O)ccc1C | activation | 1.75 |

[in] Consider the molecule shown here: CC(C(=O)NC1CCCC1)n1c2ccccc2c2cn[nH]c(=O)c21 (stereo not given) What is its recorded activation?
[out] 0.687

[in] Consider the molecule shown here: "Cn1cccc1CC(=O)N/N=C\c1c(Cl)cccc1Cl" What is its recorded activation?
[out] 0.023

[in] Consider the molecule shown here: "CCC(=O)Nc1ccc(C(=O)c2ccccc2)cc1NC(=O)CC" What is its recorded activation?
[out] 0.269

---

- measurement.target: G-protein coupled receptor 151 (Homo sapiens)
- procedure.text: activators of human GPR151, primary screen, cell-based, PathHunter beta-arrestin, luminescence (AID 1508602);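 further: 0% = median of compound wells and 100% = cells with positive control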
- test.context: PathHunter beta-arrestin GPR151 cells, at 11.2 µM
Screen size: about 650,000 compounds; about 6,800 (1%) were called active. No stated cut-off is given here; in the data, active means activation above about 4.9%; inactive means the rest. The sample holds actives, similar compounds and a random draw of the others, so the mix is not that of the screen.
Lab note: assign the record to one of TRUE = active, FALSE = inactive

[in] Hi, sorry to bother you, what did the test record for "CCn1c(NCc2ccccc2OC)nc2ccccc21" ?
[out] FALSE
